Provenance of the data: paper PMC9610897

# TEST SUMMARY: Cell viability assay in Vero cells (resazurin)
# Assay type: cell-based
# EXPERIMENTAL SETUP: green monkey, 5 d, read-out: Cytotoxicity, CC50 ± SD, Vero
MEASUREMENT LABEL: CC50 at 5 days

**Q:** Name the recorded CC50 at 5 days for `C[n+]1c(C=Cc2ccc3c4cccc5cccc(c6cccc2c63)c54)sc2ccccc21.[Cl-]` .
**A:** > 100 µM

**Q:** # input molecule: `CC(C)[C@H](NC(=O)OC(C)(C)C)C(=O)O[C@@H]1[C@@H]2O[Si](C(C)C)(C(C)C)O[Si](C(C)C)(C(C)C)OC[C@H]2O[C@H]1n1cc(C#Cc2ccc3c4cccc5cccc(c6cccc2c63)c54)c(=O)[nH]c1=O` ; wanted: its CC50 at 5 days
**A:** > 100 µM

**Q:** Fill in: CC50 at 5 days of `CC(C)[C@H](N)C(=O)O[C@@H]1[C@H](O)[C@@H](CO)O[C@H]1n1cc(C#Cc2ccc3c4cccc5cccc(c6cccc2c63)c54)c(=O)[nH]c1=O` is ___
**A:** > 100 µM

###

# TEST SUMMARY: in vitro
# Format: in vitro ADME
# EXPERIMENTAL SETUP: bovine, 80% FBS in 0.05 M PBS pH 7.4, 37 °C, read-out: In vitro FBS half-life (t1/2)
MEASUREMENT LABEL: half-life at 200 μM (h)
The figure you give is taken to be in h; do not add the unit.

**Q:** # get_value(readout='half-life at 200 μM', item= `C[n+]1c(C=Cc2ccc3c4cccc5cccc(c6cccc2c63)c54)sc2ccccc21.[Cl-]` )
**A:** 2.78

###

# TEST SUMMARY: Solubility in water (photometry)
# Type: physicochemical
# EXPERIMENTAL SETUP: thermodynamic from solid; distilled water, sonication, centrifugation, photometry
Assign solubility at 30 min to each entry below.
Write the number in mM without appending the unit.

**Q:** // returns reported solubility at 30 min for input `CC(C)[C@H](N)C(=O)O[C@@H]1[C@H](O)[C@@H](CO)O[C@H]1n1cc(C#Cc2ccc3c4cccc5cccc(c6cccc2c63)c54)c(=O)[nH]c1=O`
**A:** 0.1

**Q:** Which value of solubility at 30 min has been reported for `C[n+]1c(C=Cc2ccc3c4cccc5cccc(c6cccc2c63)c54)sc2ccccc21.[Cl-]` in the records?
**A:** 11

**Q:** Value lookup for solubility at 30 min; key = `C[N+]1(CCCn2cc(-c3ccc4c5cccc6cccc(c7cccc3c74)c65)nn2)CCOCC1.[I-]`
**A:** 5

**Q:** Look up solubility at 30 min for this compound: `C[N+]1(CCn2cc(-c3ccc4c5cccc6cccc(c7cccc3c74)c65)nn2)CCOCC1.[I-]`
**A:** 3.4

###

# TEST SUMMARY: Cell viability assay in MDCK cells (MTT)
# Type: cell-based, canine
# EXPERIMENTAL SETUP: dog, read-out: Cytotoxicity, CC50 ± SD, MDCK
MEASUREMENT LABEL: CC50 at 24 h

**Q:** # input compound: `CC(C)[C@H](NC(=O)OC(C)(C)C)C(=O)O[C@@H]1[C@@H]2O[Si](C(C)C)(C(C)C)O[Si](C(C)C)(C(C)C)OC[C@H]2O[C@H]1n1cc(C#Cc2ccc3c4cccc5cccc(c6cccc2c63)c54)c(=O)[nH]c1=O` ; wanted: its CC50 at 24 h
**A:** > 100 µM

**Q:** Can you look up the measured CC50 at 24 h of `CC(C)[C@H](N)C(=O)O[C@@H]1[C@H](O)[C@@H](CO)O[C@H]1n1cc(C#Cc2ccc3c4cccc5cccc(c6cccc2c63)c54)c(=O)[nH]c1=O` for me?
**A:** > 100 µM

**Q:** I am curious: what CC50 at 24 h value has been reported for `CC(C)[C@H](NC(=O)OC(C)(C)C)C(=O)O[C@@H]1[C@H](O)[C@@H](CO)O[C@H]1n1cc(C#Cc2ccc3c4cccc5cccc(c6cccc2c63)c54)c(=O)[nH]c1=O` ?
**A:** 62 µM

**Q:** What measured CC50 at 24 h goes with `C[N+]1(CCCn2cc(-c3ccc4c5cccc6cccc(c7cccc3c74)c65)nn2)CCOCC1.[I-]` ?
**A:** > 100 µM

**Q:** Quick one: CC50 at 24 h for `c1cc2cccc3c4ccc(-c5cn(CCCN6CCOCC6)nn5)c5cccc(c(c1)c23)c54` ?
**A:** > 100 µM

**Q:** Given CCOC(=O)C1=C[C@@H](OC(CC)CC)[C@H](NC(C)=O)[C@@H](N)C1 [Tamiflu, Oseltamivir phosphate, reference compound] , state its recorded CC50 at 24 h.
**A:** > 100 µM

**Q:** # get_value(readout='CC50 at 24 h', item= `C[N+]1(CCn2cc(-c3ccc4c5cccc6cccc(c7cccc3c74)c65)nn2)CCOCC1.[I-]` )
**A:** > 100 µM

**Q:** Entry `c1cc2cccc3c4ccc(-c5cn(CCN6CCOCC6)nn5)c5cccc(c(c1)c23)c54` has what CC50 at 24 h?
**A:** > 100 µM

**Q:** Which CC50 at 24 h value belongs to `C[n+]1c(C=Cc2ccc3c4cccc5cccc(c6cccc2c63)c54)sc2ccccc21.[Cl-]` ?
**A:** 69 µM
